Each entry below carries its reported mole fraction solubility (x).
Format: physicochemical
SETTINGS: Buffer pH 7.4, 303.15 K
Write the answer as a number in x · 10^6, unit excluded.

Worked cases, mole fraction solubility (x) given:
CN1CCc2c(c3ccccc3n2CCc2n[nH]c(=S)n2C)C1 : 2.04
CN1CCc2c(c3cc(Cl)ccc3n2CCc2n[nH]c(=S)n2C)C1 : 4.01
CN1CCc2c(c3cc(F)ccc3n2CCc2n[nH]c(=S)n2C)C1 : 11.11
Cc1ccc2c(c1)c1c(n2CCc2n[nH]c(=S)n2C)CCN(C)C1 : 2.27

Look up mole fraction solubility (x): COc1ccc2c(c1)c1c(n2CCc2n[nH]c(=S)n2C)CCN(C)C1
7.53

----------
Type: physicochemical
SETTINGS: Hexane, 303.15 K
Each entry below carries its reported mole fraction solubility (x).
Write the answer as a number in x · 10^5, unit excluded.

Cc1ccc2c(c1)c1c(n2CCc2n[nH]c(=S)n2C)CCN(C)C1 [Compound II] : 2.02

Moving on to another molecule below.
Look up mole fraction solubility (x): COc1ccc2c(c1)c1c(n2CCc2n[nH]c(=S)n2C)CCN(C)C1 [III]
4.18

----------
Type: physicochemical
SETTINGS: Buffer pH 7.4, 298.15 K
Each entry below carries its reported ΔHsol0, standard molar dissolution enthalpy.
Write the answer as a number in kcal/mol, unit excluded.

Worked cases, ΔHsol0, standard molar dissolution enthalpy given:
CN1CCc2c(c3ccccc3n2CCc2n[nH]c(=S)n2C)C1 : 3.27
COc1ccc2c(c1)c1c(n2CCc2n[nH]c(=S)n2C)CCN(C)C1 : 5.4
CN1CCc2c(c3cc(F)ccc3n2CCc2n[nH]c(=S)n2C)C1 : 5.09
Cc1ccc2c(c1)c1c(n2CCc2n[nH]c(=S)n2C)CCN(C)C1 : 6.07

Moving on to another compound below.
Look up ΔHsol0, standard molar dissolution enthalpy: CN1CCc2c(c3cc(Cl)ccc3n2CCc2n[nH]c(=S)n2C)C1
7.55

----------
Assay type: physicochemical
SETTINGS: Buffer pH 7.4, 293.15–313.15 K
Class class 1: A, parameter of the correlation equation lnx=A-B/T at least -3. Class class 0: A, parameter of the correlation equation lnx=A-B/T below -3.

CN1CCc2c(c3cc(Cl)ccc3n2CCc2n[nH]c(=S)n2C)C1 : class 1
CN1CCc2c(c3ccccc3n2CCc2n[nH]c(=S)n2C)C1 : class 0
Cc1ccc2c(c1)c1c(n2CCc2n[nH]c(=S)n2C)CCN(C)C1 : class 1

Given COc1ccc2c(c1)c1c(n2CCc2n[nH]c(=S)n2C)CCN(C)C1 , state whether its A, parameter of the correlation equation lnx=A-B/T is at least -3.
class 1

----------
Each entry below carries its reported ΔGsol0, standard molar dissolution Gibbs energy.
Type: physicochemical
SETTINGS: 1-octanol, 298.15 K
Write the answer as a number in kcal/mol, unit excluded.

Worked cases, ΔGsol0, standard molar dissolution Gibbs energy given:
Cc1ccc2c(c1)c1c(n2CCc2n[nH]c(=S)n2C)CCN(C)C1 : 5.38
COc1ccc2c(c1)c1c(n2CCc2n[nH]c(=S)n2C)CCN(C)C1 : 5.5
CN1CCc2c(c3ccccc3n2CCc2n[nH]c(=S)n2C)C1 : 4.85
CN1CCc2c(c3cc(Cl)ccc3n2CCc2n[nH]c(=S)n2C)C1 : 5.23

Moving on to another compound below.
Look up ΔGsol0, standard molar dissolution Gibbs energy: CN1CCc2c(c3cc(F)ccc3n2CCc2n[nH]c(=S)n2C)C1
4.8

----------
Type: physicochemical
SETTINGS: 1-octanol, 293.15–313.15 K
Class t: A, parameter of the correlation equation lnx=A-B/T at least 4. Class f: A, parameter of the correlation equation lnx=A-B/T below 4.

Take a look at these entries with their results.
CN1CCc2c(c3ccccc3n2CCc2n[nH]c(=S)n2C)C1 : t
CN1CCc2c(c3cc(F)ccc3n2CCc2n[nH]c(=S)n2C)C1 : f
COc1ccc2c(c1)c1c(n2CCc2n[nH]c(=S)n2C)CCN(C)C1 : t

Could you now look at the following compound, please?
Given CN1CCc2c(c3cc(Cl)ccc3n2CCc2n[nH]c(=S)n2C)C1 , state whether its A, parameter of the correlation equation lnx=A-B/T is at least 4.
t

----------
Each entry below carries its reported mole fraction solubility (x).
Assay type: physicochemical
SETTINGS: Hexane, 308.15 K
Write the answer as a number in x · 10^5, unit excluded.

Cc1ccc2c(c1)c1c(n2CCc2n[nH]c(=S)n2C)CCN(C)C1 : 2.35

Moving on to another compound below.
Look up mole fraction solubility (x): COc1ccc2c(c1)c1c(n2CCc2n[nH]c(=S)n2C)CCN(C)C1
4.68

----------
Type: physicochemical
SETTINGS: Hexane, 293.15–313.15 K
Each entry below carries its reported B, parameter of the correlation equation lnx=A-B/T.
Kindly provide the number alone.

COc1ccc2c(c1)c1c(n2CCc2n[nH]c(=S)n2C)CCN(C)C1 [III] : 2165
CN1CCc2c(c3cc(Cl)ccc3n2CCc2n[nH]c(=S)n2C)C1 [V] : 2922
CN1CCc2c(c3cc(F)ccc3n2CCc2n[nH]c(=S)n2C)C1 [Compound IV] : 2624
Cc1ccc2c(c1)c1c(n2CCc2n[nH]c(=S)n2C)CCN(C)C1 [Compound II] : 2989

Look up B, parameter of the correlation equation lnx=A-B/T: CN1CCc2c(c3ccccc3n2CCc2n[nH]c(=S)n2C)C1 [Compound I]
3073

----------
Format: physicochemical
SETTINGS: Hexane, 313.15 K
ASSAY READOUT: mole fraction solubility (x) (x · 10^5)
Write the answer as a number in x · 10^5, unit excluded.

COc1ccc2c(c1)c1c(n2CCc2n[nH]c(=S)n2C)CCN(C)C1 : 5.31

Look up mole fraction solubility (x): Cc1ccc2c(c1)c1c(n2CCc2n[nH]c(=S)n2C)CCN(C)C1
2.72

----------
Format: physicochemical
SETTINGS: 1-octanol, 298.15 K
Please use y for ΔHsol0, standard molar dissolution enthalpy under 8 kcal/mol and n for everything else, ties included.

Take a look at these entries with their results.
CN1CCc2c(c3cc(F)ccc3n2CCc2n[nH]c(=S)n2C)C1 : y
CN1CCc2c(c3cc(Cl)ccc3n2CCc2n[nH]c(=S)n2C)C1 : n
CN1CCc2c(c3ccccc3n2CCc2n[nH]c(=S)n2C)C1 : n
Cc1ccc2c(c1)c1c(n2CCc2n[nH]c(=S)n2C)CCN(C)C1 : y

Could you now look at the following compound, please?
State whether 8 kcal/mol exceeds ΔHsol0, standard molar dissolution enthalpy recorded for COc1ccc2c(c1)c1c(n2CCc2n[nH]c(=S)n2C)CCN(C)C1 .
n

----------
Type: physicochemical
SETTINGS: 1-octanol, 293.15 K
Each entry below carries its reported mole fraction solubility (x).
Write the answer as a number in x · 10^4, unit excluded.

Worked cases, mole fraction solubility (x) given:
Cc1ccc2c(c1)c1c(n2CCc2n[nH]c(=S)n2C)CCN(C)C1 [Compound II] : 0.89
COc1ccc2c(c1)c1c(n2CCc2n[nH]c(=S)n2C)CCN(C)C1 [III] : 0.71
CN1CCc2c(c3cc(Cl)ccc3n2CCc2n[nH]c(=S)n2C)C1 [V] : 1.15
CN1CCc2c(c3ccccc3n2CCc2n[nH]c(=S)n2C)C1 [Compound I] : 2.16

Look up mole fraction solubility (x): CN1CCc2c(c3cc(F)ccc3n2CCc2n[nH]c(=S)n2C)C1 [Compound IV]
2.51

----------
Format: physicochemical
SETTINGS: 1-octanol, 293.15–313.15 K
Please use Met for B, parameter of the correlation equation lnx=A-B/T under 4000 and Not met for everything else, ties included.

State whether 4000 exceeds B, parameter of the correlation equation lnx=A-B/T recorded for COc1ccc2c(c1)c1c(n2CCc2n[nH]c(=S)n2C)CCN(C)C1 .
Not met

State whether 4000 exceeds B, parameter of the correlation equation lnx=A-B/T recorded for CN1CCc2c(c3cc(F)ccc3n2CCc2n[nH]c(=S)n2C)C1 .
Met

State whether 4000 exceeds B, parameter of the correlation equation lnx=A-B/T recorded for CN1CCc2c(c3ccccc3n2CCc2n[nH]c(=S)n2C)C1 .
Not met

State whether 4000 exceeds B, parameter of the correlation equation lnx=A-B/T recorded for CN1CCc2c(c3cc(Cl)ccc3n2CCc2n[nH]c(=S)n2C)C1 .
Not met

----------
Type: physicochemical
SETTINGS: Hexane, 298.15 K
Class criterion met: ΔHsol0, standard molar dissolution enthalpy at least 20 kJ/mol. Class criterion not met: ΔHsol0, standard molar dissolution enthalpy below 20 kJ/mol.

Take a look at these entries with their results.
CN1CCc2c(c3cc(F)ccc3n2CCc2n[nH]c(=S)n2C)C1 : criterion met
Cc1ccc2c(c1)c1c(n2CCc2n[nH]c(=S)n2C)CCN(C)C1 : criterion met
CN1CCc2c(c3cc(Cl)ccc3n2CCc2n[nH]c(=S)n2C)C1 : criterion met

Given COc1ccc2c(c1)c1c(n2CCc2n[nH]c(=S)n2C)CCN(C)C1 , state whether its ΔHsol0, standard molar dissolution enthalpy is at least 20 kJ/mol.
criterion not met

Given CN1CCc2c(c3ccccc3n2CCc2n[nH]c(=S)n2C)C1 , state whether its ΔHsol0, standard molar dissolution enthalpy is at least 20 kJ/mol.
criterion met
